- System: OVCAR-3 ovarian
- Protocol Summary: NCI tumour cell line growth inhibition, 48 h
The entries below are paired with their reported TGI.
Parameter: TGI

{"Molecule": "O=C1c2cc3c(cc2-c2c1c1ccc(F)cc1c(=O)n2CCCNCCO)OCO3", "Result": "0.826 µM"}
{"Molecule": "CCOC(=O)c1cn2c(nc1=O)N[C@H]1CCCC[C@@H]12", "Result": "> 100 µM"}
{"Molecule": "O=C(/C=C/c1ccc2c(c1)OCO2)CC(=O)C(=O)c1c[nH]c2ccccc12", "Result": "> 100 µM"}
{"Molecule": "N=C(N)SCc1ccc2c(c1)Sc1ccccc1O2", "Result": "16.9 µM"}
{"Molecule": "NS(=O)(=O)c1cc2c(cc1Cl)NC(CCC(=O)O)=NS2(=O)=O", "Result": "> 100 µM"}
{"Molecule": "C[Si](C)(C)C1(Sc2ccccc2)SCCCS1", "Result": "> 100 µM"}
{"Molecule": "OCC#Cc1ccccc1C#Cc1ccccc1", "Result": "20.3 µM"}
{"Molecule": "CC1=CC(O)(c2ccc(-c3ccccc3Cl)cc2)OC1=O (stereo not drawn)", "Result": "> 100 µM"}
{"Molecule": "CC(=O)/C(=C\\c1cccc([N+](=O)[O-])c1)C(=O)Nc1ccccc1C", "Result": "> 100 µM"}
{"Molecule": "CCOC(=O)C1=C(C)C2C=C(c3cccs3)CC(c3ccc(Cl)cc3)=C2OC1=O (stereo not drawn)", "Result": "> 100 µM"}
{"Molecule": "O=S(=O)(CCn1c(Sc2ccccc2)c(Sc2ccccc2)c2ccccc21)c1ccccc1", "Result": "> 100 µM"}
{"Molecule": "Nc1ncnc2n[nH]c(Nc3ccc(F)cc3)c12", "Result": "> 100 µM"}
{"Molecule": "OCCCCCNCc1cc2cc3c(cc2c2cc(OCc4ccccc4)ccc12)OCO3", "Result": "3.14 µM"}

---

- Tested on: SF-539 CNS
- Protocol Summary: NCI tumour cell line growth inhibition, 48 h

{"Molecule": "COC(=O)C1CCC(=O)N1C(c1ccc(OC)cc1)c1ccc2c(c1)OCO2 (stereo not given)", "Limit Sign": "=", "TGI [µM]": 98.6}
{"Molecule": "CN(C)c1ccc(S(=O)Nc2ccccc2)cc1 (stereo not given)", "Limit Sign": ">", "TGI [µM]": 100}
{"Molecule": "CC(C)C(C)/C=C\\C(C)C1CCC2C3=CC=C4CC(O)CCC4(C)C3CCC21C (stereo not given)", "Limit Sign": ">", "TGI [µM]": 64}
{"Molecule": "N#Cc1c(-c2ccccc2)/c(=C\\Nc2ccc(F)cc2)c(=O)n2c1nc1ccccc12", "Limit Sign": "=", "TGI [µM]": 68.4}
{"Molecule": "O=C1NCCN1/N=C/c1c(Cl)n(-c2ccccc2)c2ccccc12", "Limit Sign": "=", "TGI [µM]": 33.7}
{"Molecule": "O=C(O)c1ccccc1CC1Cc2ccccc2C1=O (stereo not given)", "Limit Sign": ">", "TGI [µM]": 100}
{"Molecule": "Cc1cccc(NC(=O)Cn2cnc3sc(C(=O)OC(C)C)c(C)c3c2=O)c1", "Limit Sign": "=", "TGI [µM]": 21.5}
{"Molecule": "COc1ccc(-c2nc(SCC(=O)N/N=C/c3ccc(N(C)C)cc3)[nH]c2-c2ccc(OC)cc2)cc1", "Limit Sign": ">", "TGI [µM]": 100}
{"Molecule": "Clc1ccc(C(c2ccc(Cl)cc2)c2ccccn2)cc1", "Limit Sign": "=", "TGI [µM]": 33.7}
{"Molecule": "CC(C)(C)OC(=O)N[C@H]1CC2(C=C(Cl)C(=O)C(Cl)=C2)OC1=O", "Limit Sign": "=", "TGI [µM]": 45.1}
